Experiment: soluble on expression in E. coli; label from the status in PepcDB or PDB records
valueKind: soluble on expression in E. coli

Study these solved cases before continuing.
{"sequenceRecord": "MPLSKRRAAGRINGLKGPPAKKRKEIERHEALLMHPLAYTAEQYEQVAEESKFYKNCFETTAAENVELLKSNDQLKKELELLKNQQGNQLKVDMKFKSQIESTRQSNMTLLREREIWQNRYYDVLAEKLALSARVKSMMGDIVESVEVPNDSNGNTWELREDLEIDRSARRKTEEEPKAQKMNSTRGSLPRNQCSTRSNNQTPNEMLLKMAIGLDTTSVN", "soluble on expression in E. coli": "not soluble"}
{"sequenceRecord": "MIQVENLTKTINNQMILEDISIDIEKGKLTSLIGPNGAGKSTLLSAICRLIRFENGEVKIDGQLMSDYKNNDLSKKISILKQTNHTEMNITVEQLVNFGRFPYSKGRLTKEDHDIVNDALDLLQLQDIRNRNIKSLSGGQRQRAYIAMTIAQDTEYILLDEPLNNLDMKHAVQIMQTLKMLAHKMNKAIVIVLHDINFASCYSDQIVALKNGQLVKSDLKDNVIQSSVLSDLYDMNIQIEHIRNQRICLYFKD", "soluble on expression in E. coli": "not soluble"}
{"sequenceRecord": "MSGYACNQPQLYSQCNCPSFCSGYMQQQPQYYQSPCGYSSGCSGGSGGGYYPRRRHHKHKKPRRKFRFDSDEDEDLPPPPPRKSAKISRVHSEEQGFIEEKPRVTETTKTDSSWENEDLWEKKFVTESTHTKAEEKLDSEEFPEITSEEIEAAMRRKTTLPPRVVQPQPVAPAGGGLGGLGLGNGGLFGISSGVGVGVPGVGPIGVSSGLGIGK", "soluble on expression in E. coli": "not soluble"}
{"sequenceRecord": "MSEMSLIMLAAGNSTRFNTKVKKQFLRLGNDPLWLYATKNLSSFYPFKKIVVTSSNITYMKKFTKNYEFIEGGDTRAESLKKALELIDSEFVMVSDVARVLVSKNLFDRLIENLDKADCITPALKVADTTLFDNEALQREKIKLIQTPQISKTKLLKKALDQNLEFTDDSTAIAAMGGKIWFVEGEENARKLTFKEDLKKLDLPTPSFEIFTGNGFDVHEFGENRPLLLAGVQIHPTMGLKAHSDGDVLAHSLTDAILGAAGLGDIGELYPDTDMKFKNANSMELLKQAYDKVREIGFELINIDICVMAQSPKLKDFKQAMQSNIAHTLDLDEFRINVKATTTEKLGFIGRKEGMAVLSSVNLKYFDWTRL", "soluble on expression in E. coli": "soluble"}

Look up soluble on expression in E. coli for this sequence: MSLKARPTIAEVARRAGVSPATVSRVLNGTARVSPEKVRAVLQAVEELGYAPSPLAQGLATGRSYAVGILLSDFASPFFGPILEALTLELEATPYRPIAVPGHWSLVRELEALEFLKAHRVEALVLLGTALDGEALGELGIPVLAFGQRVEGPKAWSLCLDNQQAAYEATRYLIDRGHTRIVHISSHRGGMDVRDRLLGYRKAMREAGLEARVVYGDLEEEGGYRAAAEAFRRYPDTTAIFAANDQTAFGARLYLYEQGLRVPEDVSLVGFDDIALSAYQIPPLTTVRQPIQDIGIALGRALRAVLAGEVPTLPRLELRLVERASVREVREGHHHHHH
soluble

---

Assay: soluble on expression in E. coli; label from the status in PepcDB or PDB records
valueKind: soluble on expression in E. coli

{"sequenceRecord": "MSLKIADIQVRTEHFPLTRPYRIAFRSIEEIDNLIVEIRTADGLLGLGAASPERHVTGETLEACHAALDHDRLGWLMGRDIRTLPRLCRELAERLPAAPAARAALDMALHDLVAQCLGLPLVEILGRAHDSLPTSVTIGIKPVEETLAEAREHLALGFRVLKVKLCGDEEQDFERLRRLHETLAGRAVVRVDPNQSYDRDGLLRLDRLVQELGIEFIEQPFPAGRTDWLRALPKAIRRRIAADESLLGPADAFALAAPPAACGIFNIKLMKCGGLAPARRIATIAETAGIDLMWGCMDESRISIAAALHAALACPATRYLDLDGSFDLARDVAEGGFILEDGRLRVTERPGLGLVYPDEGHHHHHH", "valueKind": "soluble on expression in E. coli", "endpointResult": "soluble"}
{"sequenceRecord": "MTIYTLSHGSLKLDVSDQGGVIEGFWRDTTPLLRPGKKSGVATDASCFPLVPFANRVSGNRFVWQGREYQLQPNVEWDAHYLHGDGWLGEWQCVSHSDDSLCLVYEHRSGVYHYRVSQAFHLTADTLTVTLSVTNQGAETLPFGTGWHPYFPLSPQTRIQAQASGYWLEREQWLAGEFCEQLPQELDFNQPAPLPRQWVNNGFAGWNGQARIEQPQEGYAIIMETTPPAPCYFIFVSDPAFDKGYAFDFFCLEPMSHAPDDHHRPEGGDLIALAPGESTTSEMSLRVEWLLEHHHHHH", "valueKind": "soluble on expression in E. coli", "endpointResult": "soluble"}

---

Assay: soluble on expression in E. coli; label from the status in PepcDB or PDB records
valueKind: soluble on expression in E. coli

{"sequenceRecord": "MSLLDIIFPPNNNDDDFYGQHFSLIDSIIVKVAQDSNLSQSLRVYQYLYSWRLFGCMVAVVNNNKTLELGDKRGAIEALYEFITRFRIENPTGDVERKVKLKILEIYMIILNLLKSFENNQDQWFLKTNSYKETTTTRRREGHHHHHH", "soluble on expression in E. coli": "soluble"}
{"sequenceRecord": "MKLYMSVDMEGISGLPDDTFVDSGKRNYERGRLIMTEEANYCIAEAFNSGCTEVLVNDSHSKMNNLMVEKLHPEADLISGDVKPFSMVEGLDDTFRGALFLGYHARASTPGVMSHSMIFGVRHFYINDRPVGELGLNAYVAGYYDVPVLMVAGDDRAAKEAEELIPNVTTAAVKQTISRSAVKCLSPAKRGRLLTEKTAFALQNKDKVKPLTPPDRPVLSIEFANYGQAEWANLMPGTEIKTGTTTVQFQAKDMLEAYQAMLVMTELAMRTSFC", "soluble on expression in E. coli": "soluble"}
{"sequenceRecord": "MGSDKIHHHHHHMSQQRPDRIKQMLHYLWQHRHLSTQQAIELFGYAEATVRRDFHYIASRYPGMVRGHGCIDFDDSTEDKEYVFDVKRTLQSEAKREIAALARTFIKDGDCFFLDSGSTCLELAKCLVDAKVKVICNDIKIANELGGFPHVESYIIGGLIRPGYFSVGESLALEMINAFAVERAFISCDALSIETGITNATMFEVGVKTRIIQRSREVILMADHSKFDTVEPHAVATLSCITTILSDSALPSAIARRYQQAGCRLIMSDPSSGAR", "soluble on expression in E. coli": "not soluble"}
{"sequenceRecord": "MGHHHHHHSHRNLDSRTFITIGDRNFEVEADDLVTISELGRGAYGVVEKVRHAQSGTIMAVKRIRATVNSQEQKRLLMDLDINMRTVDCFYTVTFYGALFREGDVWICMELMDTSLDKFYRKVLDKNMTIPEDILGEIAVSIVRALEHLHSKLSVIHRDVKPSNVLINKEGHVKMCDFGISGYLVDSVAKTMDAGCKPYMAPERINPELNQKGYNVKSDVWSLGITMIEMAILRFPYESWGTPFQQLKQVVEEPSPQLPADRFSPEFVDFTAQCLRKNPAERMSYLELMEHPFF", "soluble on expression in E. coli": "soluble"}

Below is a list of sequences. For each, state its recorded soluble on expression in E. coli.
1. MPSKQVGWWTMSEHTNDEVQPTALSGNDAVNRAAEQWKESAHRNIPGLGDLPIPDDTANLREGPNLHDGLLALLPLVGVWRGTGHADTAEEGQYAFGQQITFAHDGENYLTYESRIWKLDDEGNSTDLDYRESGFWRISLKDEIEVVLTHSTGVAEIFYGEPMNERAWQIESASTMVTAQGPATLGPGKRLYGLMPNNNLGWVDERMVDGEMRPRMSAELSRVIGLEHHHHHH
2. MGHHHHHHSHRKRPLLAPLCNGLINSYEDKSNDFVCPICFDMIEEAYMTKCGHSFCYKCIHQSLEDNNRCPKCNYVVDNIDHLYPNFLVNELILKQKQRFEEKRFKLDHSVSSTNGHRWQIFQDWLGTDQDNLDLANVNLMLELLVQKKKQLEAESHAAQLQILMEFLKVARRNKREQLEQIQKELSVLEEDIKRVEEMSGLYSPVSED

soluble
not soluble

Attribution: the DeepSol protein solubility set
